For each record, write down the corresponding MOR agonist activity ([35S]GTPγS binding), compound as agonist.
target: mu opiate receptor (MOR) (Rattus norvegicus); construct: from tissue; host or cells: striatum (membrane preparation); type: biochemical; conditions: 1 μM; preliminary study, average of two runs
Give bare numbers, in %.

>>> observed_value("C=CCN1CCC2(CC1)OCCN2S(=O)(=O)c1ccc(C)cc1")
191.8
>>> observed_value("Cc1ccc(S(=O)(=O)N2CCOC23CCN(CC2CCC2)CC3)cc1")
197.2
>>> observed_value("O=S(=O)(c1ccc(OC(F)(F)F)cc1)N1CCOC12CCN(CC1CC1)CC2")
165.2

We now examine a further compound.
Param item = Cc1ccc(S(=O)(=O)N2CCOC23CCN(CC2CC2)CC3)cc1 [Compound C0134M] ; retrieve measured MOR agonist activity ([35S]GTPγS binding), compound as agonist.
224.0

----------
molecular target: mu opiate receptor (MOR) (Rattus norvegicus, UniProt P33535); construct: from tissue; host or cells: striatum (membrane preparation); type: biochemical
Sequence (P33535 whole entry): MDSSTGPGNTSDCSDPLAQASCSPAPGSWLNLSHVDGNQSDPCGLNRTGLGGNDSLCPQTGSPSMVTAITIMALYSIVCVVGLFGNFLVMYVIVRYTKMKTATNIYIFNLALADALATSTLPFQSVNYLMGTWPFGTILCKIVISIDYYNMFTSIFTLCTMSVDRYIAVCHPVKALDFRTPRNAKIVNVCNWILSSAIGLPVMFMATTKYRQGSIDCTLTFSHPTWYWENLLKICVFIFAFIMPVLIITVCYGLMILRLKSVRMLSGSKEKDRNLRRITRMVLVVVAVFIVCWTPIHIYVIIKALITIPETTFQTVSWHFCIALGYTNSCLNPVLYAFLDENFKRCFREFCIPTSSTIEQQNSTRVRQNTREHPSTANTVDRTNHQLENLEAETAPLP
Could you please report measured % DAMGO (0.1 μM) for the items listed next?
Numbers only, in %.

Known % DAMGO (0.1 μM) results, listed for orientation:
>>> observed_value("COc1ccc(CCC(O)CC2c3c(cc4c(c3OC)OCO4)CCN2C)cc1 (stereo not shown)")
104.8
>>> observed_value("COc1ccc(C(=O)CC2c3c(cc4c(c3OC)OCO4)CC[N+]2(C)C)c(F)c1 (stereo not shown)")
82.3

For every item in the list below, what is its measured % DAMGO (0.1 μM)?
1. CC1CN(CC(O)COc2ccccc2Br)CC(C)O1 (stereo not shown)
2. COc1c2c(cc3c1C(CC(=O)CCc1ccc(Cl)cc1)[N+](C)(C)CC3)OCO2 (stereo not shown)

1: 93.4; 2: 58.9

----------
Give measured % DAMGO (0.1 μM) for each item. Keep answers brief.
molecular target: mu opiate receptor (MOR) (Rattus norvegicus); construct: from tissue; host or cells: striatum (membrane preparation); assay type: biochemical
One number for each entry, in %.

Check out these entries, answers already filled in.
>>> observed_value("CC1CCC(C(C)C)C(OCC(O)CN2CCCc3ccccc32)C1 (centres unmarked)")
36.8
>>> observed_value("COc1ccc(S(=O)(=O)N2CCOC23CCN(C(=O)OC(C)(C)C)CC3)cc1")
103.8
>>> observed_value("COc1ccc(OCC(O)CN2CC(C)OC(C)C2)cc1 (centres unmarked)")
119.1

// for each compound in input: emit % DAMGO (0.1 μM)
1. O=S(=O)(c1ccc(C(F)(F)F)cc1Br)N1CCC2(CC1)OCCN2S(=O)(=O)c1ccc(C(F)(F)F)cc1Br
2. O=S(=O)(c1ccc(Br)cc1Br)N1CCC2(CC1)OCCN2S(=O)(=O)c1ccc(Br)cc1Br

160.5
96.2

Report % DAMGO (0.1 μM) for every entry below.
1. COc1cc(OC)cc(C(=O)CC2c3c(cc4c(c3OC)OCO4)CC[N+]2(C)C)c1 (centres unmarked)
2. O=C1CN(Cc2ccccc2)C2(CCN(CC3CC3)CC2)N1 [Compound C0125M]
3. CNc1ccc(S(=O)(=O)N2CCC3(CC2)OCCN3S(=O)(=O)c2ccc(NC)cc2)cc1

1. 109.8
2. 89.1
3. 92.8
